system: A549 (lung carcinoma) cells; test: cells; assay type: cell-based; conditions: Homo sapiens, A549, 72 h, read-out: IC50 A549
quantity: IC50 (µM)

INSERT INTO measurements (molecule, study_target, result) VALUES
  ('COc1cc(CNC(=O)CCCCC=CC(C)C)ccc1O [A, 8-methyl-N-vanillyl-6-nonenamide, reference compound]', 'A549 (lung carcinoma) cells', 70.3),
  ('CCCCCCCCCCCCCCCCCCC(=O)NCc1ccc(O)c(OC)c1', 'A549 (lung carcinoma) cells', 55.3),
  ('CCCCCCCCCCCCCCCCCC(=O)NCc1ccc(O)c(OC)c1', 'A549 (lung carcinoma) cells', 50.3),
  ('CCCCCCCCCCCCCCCCC(=O)NCc1ccc(O)c(OC)c1', 'A549 (lung carcinoma) cells', 60.5);
